- ASSAY NAME: viability of HCT116 without oncogenic beta-catenin – human colon tumor cells, pilot screen (AID 823);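 note: 0% = wells killed by 20 µM Hyamine and 100% = untreated DMSO cell wells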
- EXPERIMENTAL CONTEXT: HCT116 beta-catenin knockout viability, CellTiter-Glo, 60 h; at 10 µM; active compounds read low
Inconclusive results are not listed.
VALUE TYPE: viability (%)
Answers are plain numbers, in %.

Example entries begin here.
>>> print(df.to_string())
                                   molecule  experimental_result
0  O=C(O)CC(NC(=O)OCc1ccccc1)c1ccccc1 (centres undefined)                 91.7
1  O=C1NC2(Nc3ccccc31)C(=O)Nc1ccccc12 (centres undefined)                 98.8
2  CCOC(=O)C1CCN(S(=O)(=O)c2cc(Br)cc3c2N(C(C)=O)C(C)C3)CC1 (centres undefined)                 93.4
3  COC(=O)Cn1c(CN2CCOCC2)nc2c1c(=O)n(C)c(=O)n2C                  104
4  CCn1c(C(=O)NC(C)c2ccc3c(c2)OCCO3)cc2sccc21 (centres undefined)                 96.1
5  CC1CC(C)CN(Cc2nc3c(c(=O)n(C)c(=O)n3C)n2Cc2ccccc2Cl)C1 (centres undefined)                  102
6  O=C1NCCCC1C(=O)NCCNC(=O)C(F)(F)F (centres undefined)                  101
7  CCOc1ccc(C2CC(c3cccc(OC)c3)Nc3ncnn32)cc1 (centres undefined)                   94

Look up viability for the entries below, preserving their order.
1. CCOc1ccc(C2CC(c3ccccc3C)n3nc(N)nc3N2)cc1 (centres undefined)
2. COc1ccc(N(CC(=O)Nc2nc3ccc(C)cc3s2)S(=O)(=O)c2c(C)nn(C)c2C)cc1
3. COC(=O)c1cc(COc2ccc3c4c(c(=O)oc3c2)CCCC4)c(C)o1
4. Cc1cc2nc(SCCN3CCCC3)[nH]c2cc1C

[93.8, 64.9, 103, 83.1]

Look up viability for the entries below, preserving their order.
1. CC(C)C(=O)Nc1ccc(-c2nc3cccnc3o2)cc1
2. Clc1ccc(Nc2ncnc3c2cnn3-c2ccccc2)cc1
3. COc1ccccc1NC(=O)N1CCN(c2ccc3nncn3n2)CC1

1. 101
2. 81.7
3. 106

Look up viability for the entries below, preserving their order.
1. CC(=O)c1sc(NC(=O)c2ccccc2F)nc1C
2. CCCn1c(C(C)NC(C)=O)nc2ccccc21 (centres undefined)
3. O=C(CC1Oc2ccc(Cl)cc2NC1=O)NC1CCCCCC1 (centres undefined)
4. COc1ccc(NC(=O)CC2CCCCC2)cc1OC
5. CCN1CCN(C(=O)C2CCN(Cc3nc(-c4ccc(Cl)cc4)oc3C)CC2)CC1

1: 79; 2: 99.2; 3: 102; 4: 96.3; 5: 85.8
